All values here come from ChEMBL document CHEMBL4028903.

# Method notes: Half life in mouse at 5 mg/kg, iv by LC-MS/MS analysis
# Type: ADME, organism-based
# Condition info: in vivo
Endpoint: half-life (min)
Write the value in min as a bare number.

I would be grateful if you could share the reported half-life for O=C(O)c1cc(F)c2nc(N3C4CCC3CC(OCc3c(-c5ccccc5OC(F)(F)F)noc3C3CC3)C4)sc2c1 (stereo unspecified) .
156

----------
# Method notes: Volume of distribution at steady state in mouse at 5 mg/kg, iv or 10 mg/kg, po administered via gavage by LC-MS/MS analysis
# Format: ADME, organism-based
# Condition info: in vivo, read-out: Vdss
Endpoint: Vd (L/kg)
Write the value in L/kg as a bare number.

I would be grateful if you could share the reported Vd for O=C(O)c1cc(F)c2nc(N3C4CCC3CC(OCc3c(-c5ccccc5OC(F)(F)F)noc3C3CC3)C4)sc2c1 (stereo unspecified) .
0.7
